# Lookup of reported inhibition at 0.1 µM keyed by entry
biological target: Na^+, K^+-ATPase (Homo sapiens, UniProt P05023); construct: The HEK-293 cell line endogenously expressing Na^+, K^+-ATPase; endogenous in cells; host or cells: HEK-293; experiment: cell-based; conditions: HEK293, HEK-293; dose 0.1 uM, Log[drug](M) −7.3
result type: inhibition at 0.1 µM

• C[C@]12CCC(=NOCCCN3CCCCC3)C=C1CCC1C2CC[C@]2(C)[C@@H](c3ccc(=O)oc3)CC[C@]12O (stereo partly shown) = 13.9%
• C[C@]12CCC(=NOCCCCN3CCCCC3)C=C1CCC1C2CC[C@]2(C)[C@@H](c3ccc(=O)oc3)CC[C@]12O (stereo partly shown) = 17.1%
• C[C@]12CCC(=NOCCN3CCOCC3)C=C1CCC1C2CC[C@]2(C)[C@@H](c3ccc(=O)oc3)CC[C@]12O (stereo partly shown) = 8.3%
• C[C@]12CCC(=NOCCCCCN3CCCCC3)C=C1CCC1C2CC[C@]2(C)[C@@H](c3ccc(=O)oc3)CC[C@]12O (stereo partly shown) = 0.8%

====

molecular target: Na^+, K^+-ATPase (Homo sapiens); construct: The HEK-293 cell line endogenously expressing Na^+, K^+-ATPase; endogenous in cells; host or cells: HEK-293; test: cell-based; settings: HEK-293; ranked on potency (IC50 value)
# Lookup of reported Rank order keyed by entry
result type: Rank order

* C[C@]12CCC(=NOCCN3CCOCC3)C=C1CCC1C2CC[C@]2(C)[C@@H](c3ccc(=O)oc3)CC[C@]12O (stereo partly shown) | 2
* C[C@]12CCC(=NOCCCN3CCCCC3)C=C1CCC1C2CC[C@]2(C)[C@@H](c3ccc(=O)oc3)CC[C@]12O (stereo partly shown) | 1
* C[C@]12CCC(=NOCCCCCN3CCCCC3)C=C1CCC1C2CC[C@]2(C)[C@@H](c3ccc(=O)oc3)CC[C@]12O (stereo partly shown) | 4
* C[C@H]1O[C@@H](O[C@H]2[C@@H](O)C[C@H](O[C@H]3[C@@H](O)C[C@H](O[C@H]4CC[C@@]5(C)[C@H](CC[C@@H]6[C@@H]5CC[C@]5(C)[C@@H](C7=CC(=O)OC7)CC[C@]65O)C4)O[C@@H]3C)O[C@@H]2C)C[C@H](O)[C@@H]1O [Digitoxin, reference compound] | 2

====

system: Na^+, K^+-ATPase; test: cell-based; conditions: CHO-K1; dose 100 uM
result type: Normalized Uptake (%)

- C[C@]12CCC(=NOCCN3CCC(Cc4ccccc4)CC3)C=C1CCC1C2CC[C@]2(C)[C@@H](c3ccc(=O)oc3)CC[C@]12O (some centres unmarked): 41.0
- C[C@]12CCC(=NOCCCCN3CCCCC3)C=C1CCC1C2CC[C@]2(C)[C@@H](c3ccc(=O)oc3)CC[C@]12O (some centres unmarked): 39.0
- C[C@@H]1O[C@@H](O[C@@H]2C=C3CC[C@@H]4[C@H](CC[C@]5(C)[C@@H](c6ccc(=O)oc6)CC[C@]45O)[C@@]3(C)CC2)[C@H](O)[C@H](O)[C@H]1O [BNC4, proscillaridin, reference compound]: 44.0
- C[C@]12CCC(=NOCCCCCN3CCCCC3)C=C1CCC1C2CC[C@]2(C)[C@@H](c3ccc(=O)oc3)CC[C@]12O (some centres unmarked): 31.6
- C[C@H]1O[C@@H](O[C@H]2[C@@H](O)C[C@H](O[C@H]3[C@@H](O)C[C@H](O[C@H]4CC[C@@]5(C)[C@H](CC[C@@H]6[C@@H]5CC[C@]5(C)[C@@H](C7=CC(=O)OC7)CC[C@]65O)C4)O[C@@H]3C)O[C@@H]2C)C[C@H](O)[C@@H]1O [Digitoxin, reference compound]: 23.2

====

molecular target: Na^+, K^+-ATPase (Homo sapiens, UniProt P05023); construct: The HEK-293 cell line endogenously expressing Na^+, K^+-ATPase; endogenous in cells; assay: cell-based
result type: IC50 (µM)

- C[C@]12CCC(=NOCCCN3CCCCC3)C=C1CCC1C2CC[C@]2(C)[C@@H](c3ccc(=O)oc3)CC[C@]12O (stereo partly shown): 0.335
- C[C@H]1O[C@@H](O[C@H]2[C@@H](O)C[C@H](O[C@H]3[C@@H](O)C[C@H](O[C@H]4CC[C@@]5(C)[C@H](CC[C@@H]6[C@@H]5CC[C@]5(C)[C@@H](C7=CC(=O)OC7)CC[C@]65O)C4)O[C@@H]3C)O[C@@H]2C)C[C@H](O)[C@@H]1O [Digitoxin, reference compound]: 1.1
- C[C@]12CCC(=NOCCN3CCC(Cc4ccccc4)CC3)C=C1CCC1C2CC[C@]2(C)[C@@H](c3ccc(=O)oc3)CC[C@]12O (stereo partly shown): 5.53
- C[C@]12CCC(=NOCCCCCN3CCCCC3)C=C1CCC1C2CC[C@]2(C)[C@@H](c3ccc(=O)oc3)CC[C@]12O (stereo partly shown): 5.55

====

# Lookup of reported IC50 keyed by entry
target: Na^+, K^+-ATPase (Homo sapiens, UniProt P05023); construct: The HEK-293 cell line endogenously expressing Na^+, K^+-ATPase; endogenous in cells; assay: cell-based
result type: IC50 (nM)

- C[C@]12CCC(=NOCCN3CCOCC3)C=C1CCC1C2CC[C@]2(C)[C@@H](c3ccc(=O)oc3)CC[C@]12O (stereo partly drawn): 732
- C[C@]12CCC(=NOCCCCN3CCCCC3)C=C1CCC1C2CC[C@]2(C)[C@@H](c3ccc(=O)oc3)CC[C@]12O (stereo partly drawn): 183
- C[C@@H]1O[C@@H](O[C@@H]2C=C3CC[C@@H]4[C@H](CC[C@]5(C)[C@@H](c6ccc(=O)oc6)CC[C@]45O)[C@@]3(C)CC2)[C@H](O)[C@H](O)[C@H]1O [BNC4, proscillaridin, reference compound]: 240

====

target: Na^+, K^+-ATPase (Homo sapiens, UniProt P05023); construct: The HEK-293 cell line endogenously expressing Na^+, K^+-ATPase; endogenous in cells; host or cells: HEK-293; assay: cell-based; conditions: HEK293, HEK-293; dose 5 uM, Log[drug](M) −5.3
result type: inhibition at 5 µM (%)

* C[C@]12CCC(=NOCCCCN3CCCCC3)C=C1CCC1C2CC[C@]2(C)[C@@H](c3ccc(=O)oc3)CC[C@]12O (stereo partly shown) | 94.8
* C[C@]12CCC(=NOCCCN3CCCCC3)C=C1CCC1C2CC[C@]2(C)[C@@H](c3ccc(=O)oc3)CC[C@]12O (stereo partly shown) | 96.3
* C[C@]12CCC(=NOCCCCCN3CCCCC3)C=C1CCC1C2CC[C@]2(C)[C@@H](c3ccc(=O)oc3)CC[C@]12O (stereo partly shown) | 44.7
* C[C@]12CCC(=NOCCN3CCOCC3)C=C1CCC1C2CC[C@]2(C)[C@@H](c3ccc(=O)oc3)CC[C@]12O (stereo partly shown) | 92.3

====

# Lookup of reported IC50 keyed by entry
molecular target: Na^+, K^+-ATPase (Cricetulus griseus, UniProt A0A8C2N4Z0); test: cell-based
result type: IC50 (µM)

- C[C@]12CCC(=NOCCN3CCOCC3)C=C1CCC1C2CC[C@]2(C)[C@@H](c3ccc(=O)oc3)CC[C@]12O (stereo partly shown): 93.2
- C[C@]12CCC(=NOCCCCN3CCCCC3)C=C1CCC1C2CC[C@]2(C)[C@@H](c3ccc(=O)oc3)CC[C@]12O (stereo partly shown): 47.4
- C[C@]12CCC(=NOCCN3CCC(Cc4ccccc4)CC3)C=C1CCC1C2CC[C@]2(C)[C@@H](c3ccc(=O)oc3)CC[C@]12O (stereo partly shown): 41.9
- C[C@H]1O[C@@H](O[C@H]2[C@@H](O)C[C@H](O[C@H]3[C@@H](O)C[C@H](O[C@H]4CC[C@@]5(C)[C@H](CC[C@@H]6[C@@H]5CC[C@]5(C)[C@@H](C7=CC(=O)OC7)CC[C@]65O)C4)O[C@@H]3C)O[C@@H]2C)C[C@H](O)[C@@H]1O [Digitoxin, reference compound]: 44.9

====

target: Na^+, K^+-ATPase (Homo sapiens); construct: The HEK-293 cell line endogenously expressing Na^+, K^+-ATPase; endogenous in cells; host or cells: HEK-293; assay: cell-based; conditions: HEK293, HEK-293; dose 0.1 uM, Log[drug](M) −7.0
result type: inhibition at 0.1 µM (%)

- C[C@]12CCC(=NOCCN3CCOCC3)C=C1CCC1C2CC[C@]2(C)[C@@H](c3ccc(=O)oc3)CC[C@]12O (stereo partly shown) [BP245]: 22.1
- C[C@]12CCC(=NOCCCCCN3CCCCC3)C=C1CCC1C2CC[C@]2(C)[C@@H](c3ccc(=O)oc3)CC[C@]12O (stereo partly shown) [BP248]: 1.7
- C[C@]12CCC(=NOCCCN3CCCCC3)C=C1CCC1C2CC[C@]2(C)[C@@H](c3ccc(=O)oc3)CC[C@]12O (stereo partly shown) [BP246]: 28.5
- C[C@]12CCC(=NOCCCCN3CCCCC3)C=C1CCC1C2CC[C@]2(C)[C@@H](c3ccc(=O)oc3)CC[C@]12O (stereo partly shown) [BP247]: 44.9
